# System: Human papillomavirus type 1a E7 protein (residues 1-88)
# test summary: HPV1a E7 small-molecule binders, primary screen, biochemical, small-molecule microarray, residues 1-88, 635 nm (AID 1129)
# particulars: small-molecule microarray binding, fluorescence 635 nm; higher = more signal
observable: composite z-score

- C=CC(=O)O[C@@H](Cc1ccccc1)[C@H]1C2C=CCCC=C2CN1Cc1cccc(Cl)c1 (some centres not stated): -2.16
- O=C1C2C=CC(C(O)C(c3ccccc3)c3ccccc3)N(Nc3ccc([N+](=O)[O-])cc3)C2C(=O)N1c1ccccc1 (configuration not stated): 1.24
- COc1cc2c(cc1OC)CN(C(=O)[C@@H]1[C@H]3C(=O)O[C@H](c4ccccc4)[C@H](c4ccccc4)N3[C@H](c3ccccc3OCCO)[C@@]13C(=O)Nc1ccccc13)CC2: 1.22
- CC(C)C[C@@H]1NC(=O)[C@H]2C[C@@H](C(=O)NCCCCCC[N+](C)(C)C)[C@@H](c3ccc(O)cc3)N2C1=O: -0.194
- CO[C@H]1COC(=O)[C@H](Cc2ccccc2)NC(=O)CC=C[C@@H](C)[C@H](OC)COC(=O)CC=C[C@@H]1C: 0.779
- Cc1ccc(S[C@]2(C(=O)NCCCN(C)C)CC(=O)N(C3CCCCC3)[C@@H]2c2ccc(CO)cc2I)cc1: -0.171
- NC(=O)[C@H]1[C@@H]2C(=O)O[C@@H](c3ccccc3)[C@@H](c3ccccc3)N2[C@@H](c2ccc(O)cc2)[C@]12C(=O)Nc1ccc(C#CCCO)cc12: -1.66

###

Attribute: composite z-score
# Test system: Neuregulin-1 EGF-like domain
# test summary: binders of neuregulin-1 EGF-like domain, primary screen, biochemical, small-molecule microarray, 635 nm fluorescence (AID 1081);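 further: binding of the protein to compounds printed on small-molecule microarray slides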
# particulars: small-molecule microarray binding, higher = more signal
observable: composite z-score

* O=C1OCC=C[C@H]2OC34C=CCN(Cc5ccccc5)C(=O)[C@H]3N(CCO)C(=O)[C@@H]4[C@@H]12 (stereo partly drawn) | 0.699
* COc1ccc([Si](C)(C)[C@H]2[C@H](CC(=O)N3Cc4ccccc4C[C@H]3CO)O[C@@]3(C(=O)N(Cc4cccc(N5CCOC5=O)c4)c4ccccc43)[C@@H]2C)cc1 | 0.95
* C=CCNC(=O)[C@H]1[C@@H]2C(=O)O[C@@H](c3ccccc3)[C@@H](c3ccccc3)N2[C@@H](c2ccccc2OCCO)[C@]12C(=O)N(C(=O)OCCOC)c1ccc(C#CCC(C(=O)OC)C(=O)OC)cc12 | 1.22

###

# System: wheat germ agglutinin (Triticum aestivum), Alexa647-labelled
# test summary: wheat germ agglutinin binders on compound microarrays, profiling panel, artefact control for SMM control-protein annotation, biochemical, small-molecule microarray, 635/667 nm fluorescence (AID 1140);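 further: score merges 667 nm feature emission with signal to noise over triplicate slides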
# particulars: WGA-A647 binding, 635 nm fluorescence, higher = more signal
observable: composite z-score

- CN1CCC(CCCO)=CC1C1CC1 (centres undefined): -0.59
- [N-]=[N+]=NCc1ccccc1C[C@@]1(C(=O)N2CCOCC2)N=C(c2ccc(OCCCO)cc2)O[C@@H]1c1ccccc1N=[N+]=[N-]: 1.37
- CN(C)C(=O)[C@@]1(Cc2ccccc2N=[N+]=[N-])N=C(c2ccc(OCCCO)cc2)O[C@H]1c1ccccc1CN=[N+]=[N-]: 1.45
- C=CC(=O)O[C@@H](Cc1ccccc1)[C@H]1C2C=CCCC=C2CN1Cc1cccc(Cl)c1 (some centres undefined): -0.346
- COc1cc(CO)cc(I)c1O[C@H]1C=C(C(=O)NCCO)C[C@@H](N(CC2CCCCC2)C(=O)c2cc3ccccc3oc2=O)[C@@H]1O: 0.516
- C=C(CCCC)/C(=C/C[C@@H](OC(=O)c1ccncc1)c1cccc(OCCO)c1)c1cc(C(=O)OC)ccc1OC: 1.09
- O=C1O[C@H](c2ccccc2)[C@H](c2ccccc2)N2[C@H]1[C@@H](C(=O)NC[C@H](O)c1ccccc1)[C@]1(C(=O)Nc3ccc(C#CC4(O)CCCCCC4)cc31)[C@H]2c1ccc(OCCO)cc1: 0.959
- O=C(CS)NCCCCCNC(=O)[C@H]1C[C@H]2C(=O)N3CCC[C@H]3C(=O)N2[C@H]1c1ccc(O)cc1: -1.68
- COc1ccc(NN2C(C(O)c3cc(OC)c(OC)c(OC)c3)C=CC3C(=O)N(C4CCCCC4)C(=O)C32)cc1 (centres undefined): 1.22
- Cc1ccc(S[C@]2(C(=O)NCCCN(C)C)CC(=O)N(C3CCCCC3)[C@@H]2c2ccc(CO)cc2I)cc1: -1.54
- CCOC(=O)C[C@H]1[C@H](OC(=O)c2cc3ccccc3oc2=O)[C@@H](NC(=O)c2ccc3ccccc3c2)c2cc(OCCCO)ccc2N1C(=O)c1ccc2ccccc2n1: 1.05
- C[C@H]1C2[C@H](Cc3ccccc3)NC(=O)[C@]23C(=O)N[C@H](Cc2ccccc2)C(=O)N[C@@H](Cc2ccccc2)C(=O)NC/C=C\C/C=C/C3[C@@H]2O[C@]12C (some centres undefined): -0.125
- COCCOC(=O)N1C(=O)[C@@]2(c3cc(C#CCNC(N)=O)ccc31)[C@H](c1ccccc1OCCO)N1[C@H](c3ccccc3)[C@H](c3ccccc3)OC(=O)[C@H]1[C@@H]2C(=O)NC[C@H](O)c1ccccc1: 0.832
- COc1cc2c(cc1OC)CN(C(=O)[C@H]1[C@@H]3C(=O)O[C@@H](c4ccccc4)[C@@H](c4ccccc4)N3[C@@H](c3ccccc3OCCO)[C@]13C(=O)Nc1ccc(C#CC4(O)CCCCCC4)cc13)CC2: 1.08

###

# test summary: S. cerevisiae RM11-1a growth modifiers, primary screen, strain RM11-1a, OD600, basal, 24 h (AID 1177);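 further: cultures grown under basal conditions with no added stressor; test concentration not given here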
# particulars: OD600, 24 h, higher = more signal, called active from +8 up or from −8 down
The source made the active and inactive calls.
observable: z-score

* CC(c1ccccc1)C(O)C1C=CC2C(=O)N(C)C(=O)C2N1N(c1ccccc1)c1ccccc1 (configuration not stated) | 0.265 (inactive)
* CC(C)[Si](OCCCNS(=O)(=O)c1ccc(Br)cc1)(C(C)C)C(C)C | -2.85 (inactive)
* COc1cc(Cc2cc3c(c(CCc4ccccc4)n2)[Si](C(C)C)(C(C)C)OC3)cc(OC)c1OC | 0.404 (inactive)
* COc1ccc([Si](C)(C)[C@@H]2[C@@H](CC(=O)N(CCO)Cc3ccccc3)O[C@]3(C(=O)N(Cc4cccc(N5CCC5=O)c4)c4ccccc43)[C@H]2C)cc1 | 1.32 (inactive)
* CN(C)CCCC[C@@H]1NC(=O)[C@@H]2C[C@H](C(=O)NCCCCCNC(=O)CS)[C@H](c3ccc(O)cc3)N2C1=O | -1.13 (inactive)
* O=C(NCC(O)CO)[C@]1(Cc2ccccc2)N=C(c2ccc(OCCCO)cc2)O[C@@H]1c1ccccc1 (some centres not stated) | -0.989 (inactive)
* C=CCNC(=O)[C@@H]1[C@H]2C(=O)O[C@H](c3ccccc3)[C@H](c3ccccc3)N2[C@H](c2ccc(OCCO)cc2)[C@@]12C(=O)N(C(=O)OCCOC)c1ccc(C#CC3(O)CCCCCC3)cc12 | 0.442 (inactive)

###

# assayed system: Calmodulin-1 (Homo sapiens)
# test summary: CALM1 binders on microarrays, EGTA buffer, profiling panel, biochemical, small-molecule microarray, Cy5-labelled CALM1 (AID 1111);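 further: labelled calmodulin applied in Tris saline Tween buffer holding calcium plus EGTA and DTT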
# particulars: Cy5-CALM1 binding fluorescence, higher = more signal
observable: composite z-score

- COC(=O)C1=CC(c2ccc(CO)cc2)=CC(c2cccs2)N(Cc2cccc(OC(F)(F)F)c2)C=C1C(=O)OC (stereo unspecified): 2.19
- O=C/C=C/c1ccccc1Cl: 0.387
- CCCC[C@@H]1C[C@H]1[C@@H](NC(=O)c1cccs1)c1ccc(Cl)cc1: 0.27
- O=C(NCc1ccccc1)c1ccc(Br)cc1[N+](=O)[O-]: 0.216
- COc1ccc([Si](C)(C)[C@H]2[C@H](CCO)O[C@@]3(C(=O)N(Cc4ccccc4)c4ccc(N5C(=O)c6cccc7cccc5c67)cc43)[C@@H]2C)cc1: 0.793
- Cc1ccccc1C(O)C1C=CC2C(=O)N(c3ccccc3)C(=O)C2N1Nc1ccc(C#N)cc1 (stereo unspecified): 2.68
- C=C(COC)/C(=C/C[C@H](OC(C)=O)c1ccc(OCCO)cc1)c1cnc2ccccc2c1: 0.339
- CC(C)[Si]1(C(C)C)OCc2cc(C3CC3)nc(-c3ccccc3)c21: -1.23
- C=CCNC(=O)[C@H]1[C@@H]2C(=O)O[C@@H](c3ccccc3)[C@@H](c3ccccc3)N2[C@@H](c2ccccc2OCCO)[C@]12C(=O)N(C(=O)OCCOC)c1ccc(C#CCC(C(=O)OC)C(=O)OC)cc12: 1.57
- COc1cc2c(cc1OC)CN(C(=O)[C@@H]1[C@H]3C(=O)O[C@H](c4ccccc4)[C@H](c4ccccc4)N3[C@H](c3ccccc3OCCO)[C@@]13C(=O)Nc1ccccc13)CC2: 0.421
- O=C1c2ccccc2[C@](Cc2ccccc2I)(C(=O)NCC(F)(F)F)[C@H](c2ccc(CO)cc2)N1Cc1ccccc1C(F)(F)F: 1.47
- COCCOC(=O)N1C(=O)[C@@]2(c3cc(C#CC4=CCCCC4)ccc31)[C@H](C(=O)NC[C@H](O)c1ccccc1)[C@H]1C(=O)O[C@H](c3ccccc3)[C@H](c3ccccc3)N1[C@@H]2c1ccccc1OCCO: 1.43
- COC(=O)c1c(CC[C@@H](CO)NC(=O)N[C@H](Cn2cc(-c3cncn3C)nn2)C(C)C)oc(C(C)=O)c1C(=O)OC: -0.055
- C[C@@H]1CC[C@H]2C(=O)N3[C@@H](CC[C@@H](C)[C@@H]3c3cccc(N4CCOCC4)c3)C(=O)N2[C@H]1c1cccc(N2CCOCC2)c1: -0.413
- CCOC(=O)C[C@H]1[C@H](OC(=O)Cc2ccc3c(c2)OCO3)[C@@H](NC(=O)CC(C)C)c2cc(OCCCO)ccc2N1C(=O)c1ccccc1: -0.278
- Cc1ccc(S[C@]2(C(=O)O)CC(=O)N(Cc3ccccc3)[C@@H]2c2ccc(CO)cc2)cc1: 0.321
- O=C1c2ccccc2[C@](Cc2ccccc2I)(C(=O)O)[C@H](c2ccc(CO)cc2)N1C1CCCCC1: 1.61
- C[C@H]1NC(=O)[C@@H](C)NC(=O)[C@@]23C(=O)N[C@@H](Cc4ccccc4)C2[C@H](C)[C@@]2(C)O[C@H]2C3/C=C/C/C=C\CNC1=O (stereo partly specified): -0.809
- COc1ccc(NN2C(C(O)c3cc(OC)c(OC)c(OC)c3)C=CC3C(=O)N(C4CCCCC4)C(=O)C32)cc1 (stereo unspecified): 1.58
- CO[C@H]1O[C@H](CO)[C@@H](OC(=O)Nc2ccccc2)[C@H](OC(=O)Nc2ccc3c(c2)OCO3)[C@@H]1OC(=O)Nc1ccc2c(c1)OCO2: 1.92
- C=C(C)[C@@H]1CC=C(C(O)C2C=CC3C(=O)NC(=O)C3N2Nc2ccccn2)CC1 (stereo partly specified): 0.206
- CN(C)C(=O)[C@@]1(Cc2ccccc2N=[N+]=[N-])N=C(c2ccc(OCCCO)cc2)O[C@H]1c1ccccc1CN=[N+]=[N-]: 2.51
- C[C@H]1COC(=O)[C@@H]2CCCN2C(=O)[C@@H](C)COC(=O)[C@@H]2CCCN2C1=O: -0.835
- C=CCC1=C[C@H]2[C@H]([C@@H]3C=C[C@]2(CC=C)C(=O)[C@]32CO2)[C@@]2(CO2)C1=O: -1.06
- C=C[C@H](OC)[C@@H](OC(=O)Nc1ccc(SC)cc1)c1ccc(OC)c(O)c1: -0.414
- Cc1ccc(N2C(=O)c3ccccc3[C@](C)(C(=O)NCC(C)C)[C@@H]2c2ccc(CO)cc2)nc1: -0.584
- CCCNC(=O)[C@@H]1c2ccccc2C(=O)N(C2CCCCC2)[C@H]1c1ccc(CO)cc1: 0.674
- C=CC[C@@]12N=C(c3ccc(OCCCO)cc3)O[C@@H]1c1ccccc1CN(Cc1ccccc1)C2=O: 1.06
- COC(=O)C1=CC(c2ccc(CO)cc2)=CC(C2CC2)N(Cc2sc3ccccc3c2Cl)C=C1C(=O)OC (stereo unspecified): 2.45
- C#C[C@H](O[Si](C#Cc1ccccc1)(C(C)C)C(C)C)c1ccccc1: -0.226
- Cc1ccc(N2C(=O)c3ccccc3[C@](C)(C(=O)O)[C@@H]2c2ccc(CO)cc2)nc1: 0.202
